TARGET ENTITY: Proteasome subunit beta type-8 (Homo sapiens, UniProt P28062)
Sequence (P28062 whole entry): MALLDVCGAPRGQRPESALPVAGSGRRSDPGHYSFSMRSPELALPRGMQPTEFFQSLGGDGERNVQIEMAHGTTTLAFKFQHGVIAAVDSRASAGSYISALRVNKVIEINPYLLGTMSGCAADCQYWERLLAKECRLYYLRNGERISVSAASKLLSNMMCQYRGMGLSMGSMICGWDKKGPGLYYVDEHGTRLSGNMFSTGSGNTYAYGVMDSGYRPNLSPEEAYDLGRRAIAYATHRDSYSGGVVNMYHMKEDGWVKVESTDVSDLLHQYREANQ
TEST: Inhibition of immunoproteasome subunit LMP7 in human INA60 cells assessed as reduction in cell viability incubated for 48 hrs by MTT assay
MEASURE NAME: IC50 (nM)
Give the quantity in nM, number only.

Summary for this compound, `CC1=C(C(=O)N[C@H](C)C(=O)N[C@@H](Cc2c[nH]c3ccccc23)C(=O)N[C@@H](Cc2ccccc2)C(=O)[C@@]2(C)CO2)Cc2ccccc21` : IC50 is 3000

* * *

TARGET ENTITY: Proteasome subunit beta type-8 (Homo sapiens)
TEST: Inhibition of immunoproteasome subunit LMP7 in human KMS12PE cells assessed as reduction in cell viability incubated for 48 hrs by MTT assay
MEASURE NAME: IC50 (µM)
Give the quantity in µM, number only.

Summary for this compound, `CC1=C(C(=O)N[C@H](C)C(=O)N[C@@H](Cc2c[nH]c3ccccc23)C(=O)N[C@@H](Cc2ccccc2)C(=O)[C@@]2(C)CO2)Cc2ccccc21` : IC50 is 3
